Experiment: Pharmacokinetic profile / in vivo conversion after oral administration to SCID mice (plasma, LC-MS/MS)
Set-up: species or system female SCID mice
Conditions: female, mouse, po, Drug from Example 1 administered 100 mg/kg p.o., lipid formulation, read-out: Tmax, compound measured: Drug from Example 1
Procedure: The pharmacokinetic profile of the phosphate compounds of formula (I) is evaluated in a lipid formulation and in aqueous solution in female SCID mice. This is compared to the pharmacokinetic profile of compounds of formula (I′) in a lipid formulation. […] The plasma from the blood samples collected after administration of the lipid formulations of the drug from the compound of Example 1 are analysed by liquid chromatography coupled with mass spectrometric detection. […]
Experimental Endpoint: Tmax (min)
Answer with a number only, understood to be in min.

Consider `O=C(c1cc(-c2cc3c(cc2C(=O)N2Cc4ccccc4C[C@H]2CN2CCOCC2)OCO3)n2c1CCCC2)N(c1ccccc1)c1ccc(O)cc1` . Its measured Tmax is 30

###

experiment: Pharmacokinetic profile / in vivo conversion after oral administration to SCID mice (plasma, LC-MS/MS); set-up: species or system female SCID mice; settings: female, mouse, po, Drug from Example 20 administered 3 mg/kg p.o., lipid formulation (PEG 300/ethanol/Phosal 50PG 30/10/60), read-out: AUCt, compound measured: Drug from Example 20
Experimental Endpoint: AUC(0-t) (ng·h/mL)
Answer with a number only, understood to be in ng·h/mL.

Consider `Cc1c(N(C(=O)c2cc(-c3cc(Cl)ccc3C(=O)N3Cc4ccccc4C[C@H]3CN3CCOCC3)n(C)c2C)c2ccc(O)cc2)cc(C#N)n1C` . Its measured AUC(0-t) is 55

###

test: Pharmacokinetic profile / in vivo conversion after oral administration to SCID mice (plasma, LC-MS/MS); set-up: species or system female SCID mice; details: female, mouse, po, Drug from Example 25 administered 25 mg/kg p.o., lipid formulation (PEG 300/ethanol/Phosal 50PG 30/10/60), read-out: Tmax, compound measured: Drug from Example 25
Experimental Endpoint: Tmax (h)
Answer with a number only, understood to be in h.

Consider `Cc1c(N(C(=O)c2cc(-c3cc(F)ccc3C(=O)N3Cc4ccccc4C[C@H]3CN3CCOCC3)n(C)c2C)c2ccc(O)cc2)cc(C#N)n1C` . Its measured Tmax is 1

###

Entries and their Papp A→B at 120 min values follow.
test: In vitro test on human Caco-2 cells, cellular transport A to B; type: in vitro ADME; conditions: human, Caco-2, drug incubated and measured, A to B, 1 or 3 μM, read-out: Papp, the drug after incubation of the drug
Answer with a number only, understood to be in ×10⁻⁶ cm/s.

{"Compound": "Cc1c(C(=O)N(c2ccc(O)cc2)c2cc(C#N)n(C)c2)cc(-c2cc(Cl)ccc2C(=O)N2Cc3ccccc3C[C@H]2CN2CCOCC2)n1C [Drug from Example 21]", "Papp A→B at 120 min [×10⁻⁶ cm/s]": 0.27}
{"Compound": "O=C(c1cc(-c2cc3c(cc2C(=O)N2Cc4ccccc4C[C@H]2CN2CCOCC2)OCO3)n2c1CCCC2)N(c1ccccc1)c1ccc(O)cc1 [Drug from Example 1]", "Papp A→B at 120 min [×10⁻⁶ cm/s]": 0.65}

Okay, now this compound:
Consider C[C@@H]1Cc2ccccc2CN1C(=O)c1cc2c(cc1-c1cc(C(=O)N(c3ccncc3)c3ccc(O)cc3)c3ccccn13)OCO2 [Drug from Example 5] . Its measured Papp A→B at 120 min is 0.7

###

assay: Pharmacokinetic profile / in vivo conversion after oral administration to SCID mice (plasma, LC-MS/MS); design: species or system female SCID mice; conditions: female, mouse, po, Drug from Example 20 administered 25 mg/kg p.o., lipid formulation (PEG 300/ethanol/Phosal 50PG 30/10/60), read-out: AUCt, compound measured: Drug from Example 20
Experimental Endpoint: AUC(0-t) (ng·h/mL)
Answer with a number only, understood to be in ng·h/mL.

Consider `Cc1c(N(C(=O)c2cc(-c3cc(Cl)ccc3C(=O)N3Cc4ccccc4C[C@H]3CN3CCOCC3)n(C)c2C)c2ccc(O)cc2)cc(C#N)n1C` . Its measured AUC(0-t) is 10200

###

assay: Pharmacokinetic profile / in vivo conversion after oral administration to SCID mice (plasma, LC-MS/MS); set-up: species or system female SCID mice; conditions: female, mouse, po, Drug from Example 1 administered 3 mg/kg p.o., lipid formulation, read-out: AUCt, compound measured: Drug from Example 1
Experimental Endpoint: AUC(0-t) (ng·h/mL)
Answer with a number only, understood to be in ng·h/mL.

Consider O=C(c1cc(-c2cc3c(cc2C(=O)N2Cc4ccccc4C[C@H]2CN2CCOCC2)OCO3)n2c1CCCC2)N(c1ccccc1)c1ccc(O)cc1 [Drug from Example 1] . Its measured AUC(0-t) is 225

###

test: Pharmacokinetic profile / in vivo conversion after oral administration to SCID mice (plasma, LC-MS/MS); parameters: species or system female SCID mice; details: female, mouse, po, Drug from Example 1 administered 30 mg/kg p.o., lipid formulation, read-out: Tmax, compound measured: Drug from Example 1
Experimental Endpoint: Tmax (h)
Answer with a number only, understood to be in h.

Consider O=C(c1cc(-c2cc3c(cc2C(=O)N2Cc4ccccc4C[C@H]2CN2CCOCC2)OCO3)n2c1CCCC2)N(c1ccccc1)c1ccc(O)cc1 [Drug from Example 1] . Its measured Tmax is 1

###

test: Solubility in aqueous medium buffered to physiological pH (phosphate 0.33M, pH 7.4); assay type: physicochemical; details: phosphate 0.33M, pH = 7.4; 100 μM
Experimental Endpoint: Solubility at 100 μM

{"Compound": "[2H]C([2H])([2H])n1cc(N(C(=O)c2cc(-c3cc(Cl)ccc3C(=O)N3Cc4ccccc4C[C@H]3CN3CCOCC3)n(C)c2C)c2ccc(O)cc2)cn1 [Drug from Example 19]", "Experimental Endpoint": "Solubility at 100 μM", "Measured Value": "Insoluble"}
{"Compound": "Cc1c(N(C(=O)c2cc(-c3cc(Cl)ccc3C(=O)N3Cc4ccccc4C[C@H]3CN3CCOCC3)n(C)c2C)c2ccc(O)cc2)cc(C#N)n1C [Drug from Example 20]", "Experimental Endpoint": "Solubility at 100 μM", "Measured Value": "Insoluble"}
{"Compound": "Cc1c(N(C(=O)c2cc(-c3cc(F)ccc3C(=O)N3Cc4ccccc4C[C@H]3CN3CCOCC3)n(C)c2C)c2ccc(OP(=O)([O-])[O-])cc2)cc(C#N)n1C.[Na+].[Na+] [Example 25]", "Experimental Endpoint": "Solubility at 100 μM", "Measured Value": "Soluble"}
{"Compound": "O=C(c1cc(-c2cc3c(cc2C(=O)N2Cc4ccccc4C[C@H]2CN2CCOCC2)OCO3)n2c1CCCC2)N(c1ccccc1)c1ccc(O)cc1 [Drug from Example 1]", "Experimental Endpoint": "Solubility at 100 μM", "Measured Value": "Insoluble"}

Consider O=C(c1cc(-c2cc3c(cc2C(=O)N2Cc4ccccc4C[C@H]2CN2CCOCC2)OCO3)n2c1CCCC2)N(c1ccccc1)c1ccc(OP(=O)([O-])[O-])cc1.[Na+].[Na+] [Example 1] . Its measured Solubility at 100 μM is Soluble

Consider Cc1c(N(C(=O)c2cc(-c3cc(Cl)ccc3C(=O)N3Cc4ccccc4C[C@H]3CN3CCOCC3)n(C)c2C)c2ccc(OP(=O)([O-])[O-])cc2)cc(C#N)n1C.[Na+].[Na+] [Example 20] . Its measured Solubility at 100 μM is Soluble

Consider Cc1c(N(C(=O)c2cc(-c3cc(F)ccc3C(=O)N3Cc4ccccc4C[C@H]3CN3CCOCC3)n(C)c2C)c2ccc(O)cc2)cc(C#N)n1C [Drug from Example 25] . Its measured Solubility at 100 μM is Insoluble

###

Assay: Pharmacokinetic profile / in vivo conversion after oral administration to SCID mice (plasma, LC-MS/MS)
Design: species or system female SCID mice
Conditions: female, mouse, po, Drug from Example 25 administered 25 mg/kg p.o., lipid formulation (PEG 300/ethanol/Phosal 50PG 30/10/60), read-out: Cmax, compound measured: Drug from Example 25
Procedure: The pharmacokinetic profile of the phosphate compounds of formula (I) is evaluated in a lipid formulation and in aqueous solution in female SCID mice. This is compared to the pharmacokinetic profile of compounds of formula (I′) in a lipid formulation. […] The plasma from the blood samples collected after administration of the lipid formulations of the drug from the compound of Example 1 are analysed by liquid chromatography coupled with mass spectrometric detection. […]
Experimental Endpoint: Cmax (ng/mL)
Answer with a number only, understood to be in ng/mL.

Consider Cc1c(N(C(=O)c2cc(-c3cc(F)ccc3C(=O)N3Cc4ccccc4C[C@H]3CN3CCOCC3)n(C)c2C)c2ccc(O)cc2)cc(C#N)n1C [Drug from Example 25] . Its measured Cmax is 3000

###

assay: Pharmacokinetic profile / in vivo conversion after oral administration to SCID mice (plasma, LC-MS/MS); set-up: species or system female SCID mice; details: female, mouse, po, Drug from Example 1 administered 30 mg/kg p.o., lipid formulation, read-out: Cmax, compound measured: Drug from Example 1
Experimental Endpoint: Cmax

Consider `O=C(c1cc(-c2cc3c(cc2C(=O)N2Cc4ccccc4C[C@H]2CN2CCOCC2)OCO3)n2c1CCCC2)N(c1ccccc1)c1ccc(O)cc1` . Its measured Cmax is 8580 ng/mL
